# measurement protocol: Plasma protein binding in mouse
# Format: ADME, cell-free
# applied conditions: read-out: PPB (converted)
Listed compounds paired with reported fraction unbound
quantity kind: fraction unbound

| structure | quantity kind | observed measurement |
| --- | --- | --- |
| CC1(C)OC(=O)N([C@H]2CC[C@H](NC(=O)c3ccnc4cc(F)cnc34)CC2)[C@H]1c1ccccc1 | fraction unbound | 0.082 |
| CC1(C)OC(=O)N([C@H]2CC[C@H](NC(=O)c3cccc4cccnc34)CC2)[C@H]1c1ccccc1 | fraction unbound | 0.023 |
| CC1(C)OC(=O)N([C@H]2CC[C@H](n3c(=O)[nH]c4c(F)c(C#N)ccc43)CC2)[C@H]1c1ccccc1 | fraction unbound | 0.051 |
| CC1(C)OC(=O)N([C@H]2CC[C@H](n3c(=O)[nH]c4cc(C#N)c(F)cc43)CC2)[C@H]1c1ccccc1 | fraction unbound | 0.041 |
| CC1(C)OC(=O)N([C@H]2CC[C@H](NC(=O)c3ccnc4cccnc34)CC2)[C@H]1c1ccccc1 | fraction unbound | 0.092 |
